- measured.target: human urokinase-type plasminogen activator receptor (uPAR, CD87), cell-bound (human, UniProt Q03405 23-305)
- Sequence (Q03405 23-305): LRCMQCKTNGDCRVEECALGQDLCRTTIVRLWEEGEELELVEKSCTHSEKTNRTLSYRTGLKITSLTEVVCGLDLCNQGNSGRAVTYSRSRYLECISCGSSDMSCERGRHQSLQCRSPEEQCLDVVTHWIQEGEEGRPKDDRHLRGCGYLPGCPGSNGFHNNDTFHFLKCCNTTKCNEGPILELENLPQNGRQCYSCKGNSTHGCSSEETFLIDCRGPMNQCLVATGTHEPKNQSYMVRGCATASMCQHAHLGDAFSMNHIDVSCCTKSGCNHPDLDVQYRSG
- assay.procedure: cell-based or functional assay
measurement.kind: Plasminogen activation inhibition (IC50, ug/ml) (µg/mL)
Form entry: value (µg/mL) — number only.

# binder, result
records = [
    ("anti-uPAR monoclonal antibody 1.99.1 (antibody, V domains shown) VH: EVQLVESGGGLIQPGGSLRLSCAASGFTVRSNYMSWVRQAPGKGLEWISVIYTGGSTYYADSVKGRFSISRDNSKNTLYLQMNSLRAEDTAVYYCAREGAVAGFDYWGQGTLVTVSS VL: EIVMTQSPATLSVSPGERATLSCRASQSISSNLAWYQQKPGQAPRLLIYGASTRATGIPARFSGSGSGTEFTLTISSLQSEDFAVYYCQQYTNWPLTFGGGTKVEIK", 0.066),
]

--- query ---
Please report the measured Plasminogen activation inhibition (IC50, ug/ml) for anti-uPAR monoclonal antibody 4.19.1 (antibody, V domains shown) VH: EVQLVESGGGLIQPGGSLRLSCAASGFSVSSNYMNWVRQAPGKGLEWVSVIYTGGSTYYADSVKGRFTISRDNSKNTLYLQMNSLRAEDTAVYYCARDTYLYGMDVWGQGTTVTVSS VL: EIVMTQSPATLSVSPGESATLSCRTSQSVSSNLAWYQQKPGQTPRLLIYGASARATGVPARFSGSGSGTEFTLTISSLQSEDFAVYYCQQYYNWPLTFGGGTKVEIK
0.056
